tested.on: hT2R54 (Homo sapiens)
Construct: expressed in transfected cells; it overexpresses a promiscuous G protein
Sequence (P59534 whole entry): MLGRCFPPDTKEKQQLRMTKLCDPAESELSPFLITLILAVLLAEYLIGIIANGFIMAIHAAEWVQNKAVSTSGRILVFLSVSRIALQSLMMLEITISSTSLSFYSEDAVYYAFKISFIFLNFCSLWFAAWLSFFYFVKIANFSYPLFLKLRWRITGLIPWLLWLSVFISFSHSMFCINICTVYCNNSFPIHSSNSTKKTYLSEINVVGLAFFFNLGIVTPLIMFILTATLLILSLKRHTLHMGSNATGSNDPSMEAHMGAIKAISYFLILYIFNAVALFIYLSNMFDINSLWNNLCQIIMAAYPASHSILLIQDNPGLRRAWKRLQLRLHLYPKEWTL
test.description: Cell-based assay for measuring hT2R54 inhibition (FLIPR calcium, Fluo4AM, acetaminophen as bitter agonist)
condition.set: Table 2; cells stably expressing hT2R54 and a promiscuous G protein; read-out: hT2R54 IC50
For each record, write down the corresponding IC50.
Numeric answer only, unit µM assumed.

Problem: Which IC50 value is on record for CC(=O)c1cc2c(cc1NC(=O)C(C)N1CCN(C(=O)[C@@H]3CCCO3)CC1)OCCO2 (stereo partly shown) [compound 411] ?
Solution: 0.17

Problem: Which IC50 value is on record for CC(=O)c1cc2c(cc1NC(=O)CN1CCN(C(=O)c3ncn[nH]3)CC1)OCO2 [compound 304] ?
Solution: 0.08

Problem: Which IC50 value is on record for CC(=O)c1cc2c(cc1NC(=O)CN1CCN(C(=O)Cc3ccccc3O)CC1)OCO2 [compound 53] ?
Solution: 0.018

Problem: Which IC50 value is on record for CC(=O)c1cc2c(cc1NC(=O)CN1CCN(C(=O)Cc3ccccc3)CC1)OCO2 [compound 52] ?
Solution: 0.051
